# target_system: T1, full length human PD-1 on cells (human, UniProt Q15116 25-288)
# T1 construct: Also used here for PD-1 on human T cells/PBMC; also called CHO-K1-hPD-1; hPD-1
# T1 sequence (Q15116 25-288 limits assumed): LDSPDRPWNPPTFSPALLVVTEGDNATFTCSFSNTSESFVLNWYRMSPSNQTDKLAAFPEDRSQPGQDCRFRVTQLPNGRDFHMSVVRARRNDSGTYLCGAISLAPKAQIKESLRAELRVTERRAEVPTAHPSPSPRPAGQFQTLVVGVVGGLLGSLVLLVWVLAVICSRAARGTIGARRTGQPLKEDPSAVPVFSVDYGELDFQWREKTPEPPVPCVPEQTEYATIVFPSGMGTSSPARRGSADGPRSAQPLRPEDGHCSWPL
# run_description: flow cytometry, CHO-K1-hPD-1 cells; antibody 100 nM
I'd appreciate it if you could supply Mean fluorescence intensity values for the items below.
A bare number is all that is needed in reply.

Q. Any idea what Mean fluorescence intensity was measured for chimeric anti-PD-1 antibody 21G8F11 (antibody, V domains shown, Purified from hybridoma of Harbour H2L2 mice: human variable regions, rat constant regions) VH: EVQLLESGGGLAQPGGSLRLSCAASGFSFNTYLMHWVRQAPGKGLEWVSAISGGGGNTYYADSVKGRFTISRDNSKNTLYLQMNSLRAEDTAVYYCAKENRIPVAPFDYWGQGTLVTVSS VL: DIQMTQSPSTLSASVGDRVTITCRASQSISTWLAWYQQKPGKAPKLLIYKASSLESGVPSRFSGSGSGTEFTLTISSLQPDDLATYYCQQYNSFSWTFGQGTKVEIK ?
A. 661

Q. Any idea what Mean fluorescence intensity was measured for chimeric anti-PD-1 antibody 76G5B3 (antibody, V domains shown, Purified from hybridoma of Harbour H2L2 mice: human variable regions, rat constant regions) VH: QVQLVESGGGVVQPGRSLRLSCAASGFTFSDYGFHWVRQAPGKGLEWVAVIWYDGSNEYYTDSVKGRFTISRDNSKNTLYLQMNSLRAEDTAMYFCVVNPFDYWGQGTLVTVSS VL: DIQMTQSPSSLSAFVGDRVTITCRASQGINHYLAWYQQKPGKAPNLLILAASTLLSGVPSRFGGRGSGTDFTLIISSLQPEDVATYYCQKYDSAPYTFGQGTKLEIK ?
A. 443

Q. Any idea what Mean fluorescence intensity was measured for chimeric anti-PD-1 antibody 32B5C7 (antibody, V domains shown, Purified from hybridoma of Harbour H2L2 mice: human variable regions, rat constant regions) VH: EVQLLESGGGLVQPGGSLRLSCAASGFTFSSYAMSWVRQAPGKGLEWVSTISGSGGTTYYADSVKGRFTISRDNSKNTLYLQMNSLRAEDTAVYYCTLTGDPDYWGQGTLVTVSS VL: EIVLTQSPATLSLSPGERATLSCRASQSVSSYLAWYQQKPGQAPRLLIYDASKRATGIPARFSGSGSGTDFTLTISSLEPEDFAVYYCQQRNNWPLTFGGGTKVEIK ?
A. 253

Q. Any idea what Mean fluorescence intensity was measured for chimeric anti-PD-1 antibody 226C3A7 (antibody, V domains shown, Purified from hybridoma of Harbour H2L2 mice: human variable regions, rat constant regions) VH: QVQLQQSGPGLVNPSQTLSLTCAISGDSVSSNSGAWNWIRQSPSRGLEWLGRTYYRSKWYNDYGISVQSRITINPDTSKNHFSLQLNSVTPEDTAVYYCARDPYYYGSGSYFDYWGQGTLVTVSS VL: EIVMTQSPATLSVSPGERVTLSCRASLSVNSNLAWYQQKPGQAPRLLIYDTSTRATGVPARFSGSGSGTEFTLTISSLQSEDFAVYYCQQYHYWPLTFGGGTKVEIK ?
A. 825

Cited source: patent US20180214548A1
